tested on: A549; assay: MTT assay, A549; format: cell-based, human; conditions: Homo sapiens, A549, 48 h, lung adenocarcinoma, 48 h incubation
pIC50: −log10 of the molar value.
Consider the following compounds and their measured pIC50 readings.

Example compounds with recorded pIC50:
COc1cc(/C=C2\SC(=O)N(Cc3c4ccccc4nc4ccccc34)C2=O)ccc1OCC(=O)Nc1ccc([N+](=O)[O-])cc1 [Compound 12d]    4.51
COc1cc(NC(=O)COc2ccc(/C=C3\SC(=O)N(Cc4c5ccccc5nc5ccccc45)C3=O)cc2)cc(OC)c1OC    < 4.30

Incoming: Kindly indicate its recorded pIC50. Item: COc1cc(/C=C2\SC(=O)N(Cc3cccc4cc5ccccc5nc34)C2=O)ccc1OCC(=O)Nc1cc(C(F)(F)F)cc(C(F)(F)F)c1 [Compound 13g]
Outgoing: < 4.30
